The reader will find reported normalized RNA/DNA level without ligand (log10) values listed item by item below.
B1: library; a variant is named by its letters at N, in order (parent)
chain: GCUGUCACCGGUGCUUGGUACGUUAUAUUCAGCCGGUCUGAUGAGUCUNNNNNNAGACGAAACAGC

variants of: B1; assay: normalized RNA/DNA level without ligand (relative to sTRSVctl = 100) (log10 (% of sTRSVctl)); HEK293T overexpressing SLC46A1; higher = less ribozyme self-cleavage, higher mRNA level; conditions: without (6R,S)-folinic acid; ligand present: no
Form rule: numeric answer, no unit written next to it.

Sequence: GCUGUCACCGGUGCUUGGUACGUUAUAUUCAGCCGGUCUGAUGAGUCUGAUGUCAGACGAAACAGC
Observed Value: 2.02
//
Sequence: GCUGUCACCGGUGCUUGGUACGUUAUAUUCAGCCGGUCUGAUGAGUCUUUCAUAAGACGAAACAGC
Observed Value: 1.99
//
Sequence: GCUGUCACCGGUGCUUGGUACGUUAUAUUCAGCCGGUCUGAUGAGUCUUCGACAAGACGAAACAGC
Observed Value: 2
//
Sequence: GCUGUCACCGGUGCUUGGUACGUUAUAUUCAGCCGGUCUGAUGAGUCUACGAGAAGACGAAACAGC
Observed Value: 1.97

// normalized RNA/DNA level without ligand (log10) value for GCUGUCACCGGUGCUUGGUACGUUAUAUUCAGCCGGUCUGAUGAGUCUCACCAGAGACGAAACAGC : 1.98

Noted for GCUGUCACCGGUGCUUGGUACGUUAUAUUCAGCCGGUCUGAUGAGUCUUUGCACAGACGAAACAGC : its normalized RNA/DNA level without ligand (log10) reads 2.01

Item: GCUGUCACCGGUGCUUGGUACGUUAUAUUCAGCCGGUCUGAUGAGUCUAGUAUUAGACGAAACAGC | normalized RNA/DNA level without ligand (log10): 2

// sample GCUGUCACCGGUGCUUGGUACGUUAUAUUCAGCCGGUCUGAUGAGUCUCAAAUAAGACGAAACAGC , its normalized RNA/DNA level without ligand (log10) was 1.95

The variant GCUGUCACCGGUGCUUGGUACGUUAUAUUCAGCCGGUCUGAUGAGUCUGCGCAAAGACGAAACAGC showed normalized RNA/DNA level without ligand (log10) equal to 1.95

The recorded normalized RNA/DNA level without ligand (log10) for entry GCUGUCACCGGUGCUUGGUACGUUAUAUUCAGCCGGUCUGAUGAGUCUGAGUGUAGACGAAACAGC equals 1.97
